# System: E. faecalis GC 2267
# test_summary: MIC, broth microdilution
# test_parameters: Enterococcus faecalis, GC2267, E. faecalis GC 2267; Mouse Serum pre-incubation
experimental_readout: MIC (µg/mL)
Answers are plain numbers, in µg/mL.

Known results for compounds:
# compound, experimental_readout, unit_string, endpoint_value
data = [
    ("CCCCN(CC(=O)Nc1cc(N(C)C)c2c(c1O)C(=O)C1=C(O)[C@]3(O)C(=O)C(C(N)=O)=C(O)[C@@H](N(C)C)C3CC1C2)C(=O)OCOC(=O)c1ccc(C)cc1 (some centres unmarked) [Example 3]", "MIC", "µg/mL", 2),
    ("CCCN(CC(=O)Nc1cc(N(C)C)c2c(c1O)C(=O)C1=C(O)[C@]3(O)C(=O)C(C(N)=O)=C(O)[C@@H](N(C)C)[C@@H]3C[C@@H]1C2)C(=O)OCOC(=O)c1ccc(OC)cc1 [Example 6]", "MIC", "µg/mL", 1),
    ("CCCCN(CC(=O)Nc1cc(N(C)C)c2c(c1O)C(=O)C1=C(O)[C@]3(O)C(=O)C(C(N)=O)=C(O)[C@@H](N(C)C)[C@@H]3C[C@@H]1C2)C(=O)OCOC(=O)c1ccc(F)cc1 [Example 4]", "MIC", "µg/mL", 1),
    ("CCCN(CC(=O)Nc1cc(N(C)C)c2c(c1O)C(=O)C1=C(O)[C@]3(O)C(=O)C(C(N)=O)=C(O)[C@@H](N(C)C)[C@@H]3C[C@@H]1C2)C(=O)OCc1ccccc1 [Example 14]", "MIC", "µg/mL", 2),
]

Prompt: Look up MIC for this compound: CCCCN(CC(=O)Nc1cc(N(C)C)c2c(c1O)C(=O)C1=C(O)[C@]3(O)C(=O)C(C(N)=O)=C(O)[C@@H](N(C)C)[C@@H]3C[C@@H]1C2)C(=O)OCOC(=O)C(C)(C)C [Example 13]
Completion: 4
